system: PC-3 PIP/flu tumor-bearing mice; assay: Biodistribution study in PC-3 PIP/flu tumor-bearing mice; assay type: in vivo, athymic nude Balb/c mice; conditions: 24 h p.i., PC-3 PIP/flu tumor-bearing mice

compound	Kidneys, % IA/g
CC(C)Cc1ccc(C(C)C(=O)NC(CC(=O)O)C(=O)NCCCCC(NC(=O)CN2CCN(CC(=O)O)CCN(CC(=O)O)CCN(CC(=O)O)CC2)C(=O)NCC2CCC(C(=O)NC(Cc3ccc4ccccc4c3)C(=O)NCCCCC(NC(=O)NC(CCC(=O)O)C(=O)O)C(=O)O)CC2)cc1 (stereo not drawn) [^177Lu-Ibu-Dα-PSMA, metal not drawn]	18.2
CC(C)Cc1ccc(C(C)C(=O)NC(CC(=O)NCCCCC(NC(=O)CN2CCN(CC(=O)O)CCN(CC(=O)O)CCN(CC(=O)O)CC2)C(=O)NCC2CCC(C(=O)NC(Cc3ccc4ccccc4c3)C(=O)NCCCCC(NC(=O)NC(CCC(=O)O)C(=O)O)C(=O)O)CC2)C(=O)O)cc1 (stereo not drawn) [^177Lu-Ibu-Dβ-PSMA, metal not drawn]	21.3
CC(C)Cc1ccc(C(C)C(=O)NCC[C@H](NC(=O)CN2CCN(CC(=O)O)CCN(CC(=O)O)CCN(CC(=O)O)CC2)C(=O)NCC2CCC(C(=O)N[C@@H](Cc3ccc4ccccc4c3)C(=O)NCCCC[C@H](NC(=O)N[C@@H](CCC(=O)O)C(=O)O)C(=O)O)CC2)cc1 (stereo partly drawn) [^177Lu-Ibu-sPSMA, metal not drawn]	10

The values you see were collected from patent US20220024882A1.
